Below, each entry is listed with its recorded IC50.
# Test system: MCF7
# Measurement description: Antiproliferative activity against human MCF7 cells assessed as cell viability after 72 hrs by MTT assay
# Assay type: functional, cell-based
# Run parameters: MCF7, 72 h
Could you give me the number in µM? Just the number is fine.

Q: Field request: IC50 | item: CN(C1=NCc2c([nH]c3ccccc23)S1)c1ccccc1
A: 95

Q: Field request: IC50 | item: CC(C)(C)OC(=O)n1cc(CNC(=S)Nc2ccc(C(F)(F)F)cc2)c2ccccc21
A: 3.5

Q: Field request: IC50 | item: CO[C@H]1N(C(=O)OC(C)(C)C)c2ccccc2[C@@]12CN=C(Nc1ccc(C)cc1)S2 (racemic)
A: 32.9

Q: Field request: IC50 | item: CC(C)(C)OC(=O)n1cc(CNC(=S)Nc2cc(C(F)(F)F)cc(C(F)(F)F)c2)c2ccccc21
A: 3.5

---

Below, each entry is listed with its recorded IC50.
# Tested on: A549
# Measurement description: Antiproliferative activity against human A549 cells assessed as cell viability after 72 hrs by MTT assay
# Format: functional, cell-based
# Run parameters: A549, 72 h
Could you give me the number in µM? Just the number is fine.

{"Molecule": "CO[C@H]1N(C(=O)OC(C)(C)C)c2ccccc2[C@@]12CN=C(NC1CCCCC1)S2 (racemic)", "Target system": "A549", "Output unit": "µM", "IC50": 27.7}
{"Molecule": "CC(C)(C)OC(=O)n1cc(CNC(=S)Nc2ccc(F)cc2)c2ccccc21", "Target system": "A549", "Output unit": "µM", "IC50": 24.3}
{"Molecule": "CO[C@@H]1N(C(=O)OC(C)(C)C)c2ccccc2[C@@]12CN=C(Nc1ccc(F)cc1)S2 (racemic)", "Target system": "A549", "Output unit": "µM", "IC50": 34}
{"Molecule": "CO[C@H]1N(C(=O)OC(C)(C)C)c2ccccc2[C@@]12CN=C(Nc1ccc(Br)cc1)S2 (racemic)", "Target system": "A549", "Output unit": "µM", "IC50": 33}
{"Molecule": "CC(C)(C)OC(=O)n1cc(CNC(=S)Nc2ccccc2)c2ccccc21", "Target system": "A549", "Output unit": "µM", "IC50": 6.6}
{"Molecule": "CSC1=NC[C@]2(S1)c1ccccc1N(C(=O)OC(C)(C)C)[C@@H]2O (racemic)", "Target system": "A549", "Output unit": "µM", "IC50": 100}
{"Molecule": "CC(C)(C)OC(=O)n1cc(CNC(=S)Nc2ccc(Br)cc2)c2ccccc21", "Target system": "A549", "Output unit": "µM", "IC50": 6.8}
{"Molecule": "CSC1=NC[C@]2(S1)c1ccccc1N(C(=O)OC(C)(C)C)[C@H]2O (racemic)", "Target system": "A549", "Output unit": "µM", "IC50": 100}
{"Molecule": "c1ccc2c3c([nH]c2c1)SC(N1CCCCC1)=NC3", "Target system": "A549", "Output unit": "µM", "IC50": 42.2}
{"Molecule": "CO[C@H]1N(C(=O)OC(C)(C)C)c2ccccc2[C@@]12CN=C(Nc1ccc(C(F)(F)F)cc1)S2 (racemic)", "Target system": "A549", "Output unit": "µM", "IC50": 24.6}

Q: Field request: IC50 | item: COc1ccc(NC2=NC[C@]3(S2)c2ccccc2N(C(=O)OC(C)(C)C)[C@@H]3OC)cc1 (racemic)
A: 31.3

Q: Field request: IC50 | item: Cc1ccc(NC2=NCc3c([nH]c4ccccc34)S2)cc1
A: 31.2

Q: Field request: IC50 | item: CC(C)(C)OC(=O)n1cc(CNC(=S)Nc2cc(C(F)(F)F)cc(C(F)(F)F)c2)c2ccccc21
A: 3.6

Q: Field request: IC50 | item: Cc1ccc(NC(=S)NCc2cn(C(=O)OC(C)(C)C)c3ccccc23)cc1
A: 31.3

Q: Field request: IC50 | item: CO[C@H]1N(C(=O)OC(C)(C)C)c2ccccc2[C@@]12CN=C(SC)S2 (racemic)
A: 70.5

Q: Field request: IC50 | item: CO[C@H]1N(C(=O)OC(C)(C)C)c2ccccc2[C@@]12CN=C(Nc1ccc(Cl)cc1)S2 (racemic)
A: 26

Q: Field request: IC50 | item: CO[C@@H]1N(C(=O)OC(C)(C)C)c2ccccc2[C@@]12CN=C(SC)S2 (racemic)
A: 96.3

Q: Field request: IC50 | item: CO[C@H]1N(C(=O)OC(C)(C)C)c2ccccc2[C@@]12CN=C(N1CCCCC1)S2 (racemic)
A: 54.2

Q: Field request: IC50 | item: O=[N+]([O-])c1ccc(NC2=NCc3c([nH]c4ccccc34)S2)cc1
A: 32

Q: Field request: IC50 | item: CO[C@@H]1N(C(=O)OC(C)(C)C)c2ccccc2[C@@]12CN=C(N1CCCCC1)S2 (racemic)
A: 55.4

Q: Field request: IC50 | item: CN(C1=NCc2c([nH]c3ccccc23)S1)c1ccccc1
A: 91.5

Q: Field request: IC50 | item: CO[C@H]1N(C(=O)OC(C)(C)C)c2ccccc2[C@@]12CN=C(Nc1ccc(C)cc1)S2 (racemic)
A: 31.4

Q: Field request: IC50 | item: CN(C1=NC[C@]2(S1)c1ccccc1N(C(=O)OC(C)(C)C)[C@H]2O)c1ccccc1 (racemic)
A: 28.7

Q: Field request: IC50 | item: CO[C@@H]1N(C(=O)OC(C)(C)C)c2ccccc2[C@@]12CN=C(N(C)c1ccccc1)S2 (racemic)
A: 28.7

Q: Field request: IC50 | item: CC(C)(C)OC(=O)n1cc(CNC(=S)NC2CCCCC2)c2ccccc21
A: 33.5

Sourced from ChEMBL document CHEMBL2440045
